Provenance of the data: patent US9238821B2

# Tested on: P. omnivora
# assay_text: Fungal inhibition assay against P. omnivora on PDA medium
# Format: cell-based, Phymatotrichopsis omnivora
# condition_summary: compound 0.1 mM in PDA medium; 120 h; 0 = no fungal growth (best inhibition), 5 = best fungal growth (no inhibition); two replicate columns
In this section, each of the molecules is paired with its reported Fungal growth score (arbitrary scale 0 to 5).
measure_name: Fungal growth score (arbitrary scale 0 to 5)

>>> observed_result("O=C1C[C@@H](c2ccc(O)cc2)Oc2cc(O)ccc21")
5
>>> observed_result("Oc1ccccc1O [catechol, reference compound]")
2
>>> observed_result("O=C(/C=C/c1ccc(O)cc1)c1ccc(O)cc1O")
4
>>> observed_result("O=c1cc(-c2ccc(O)cc2)oc2cc(O)cc(O)c12")
5
>>> observed_result("O=c1cc(-c2ccc(O)cc2)oc2cc(O)ccc12 [7,4′-dihydroxyflavone]")
3
>>> observed_result("COc1ccc(-c2coc3cc(O)ccc3c2=O)cc1 [formononetin, reference compound]")
4

====

# System: P. omnivora
# assay_text: Fungal inhibition assay against P. omnivora on PDA medium
# Type: cell-based, Phymatotrichopsis omnivora
# condition_summary: in vitro, PDA medium, 0.1 mM and 0.5 mM
measure_name: in vitro growth inhibitory activity against P. omnivora (in words)

>>> observed_result("O=C1C[C@@H](c2ccc(O)cc2)Oc2cc(O)cc(O)c21")
"no inhibition activity"
>>> observed_result("O=C1C[C@@H](c2ccc(O)cc2)Oc2cc(O)ccc21")
"no inhibition activity"
>>> observed_result("COc1ccc(-c2coc3cc(O)ccc3c2=O)cc1 [formononetin, reference compound]")
"not active"
>>> observed_result("O=c1cc(-c2ccc(O)cc2)oc2cc(O)c(O)cc12")
"not active"
